Origin of the recorded values: PubChem BioAssay AID1006

Molecular target: Luciferin 4-monooxygenase (Photinus pyralis) (UniProt P08659)
Sequence (P08659 whole entry, looked up): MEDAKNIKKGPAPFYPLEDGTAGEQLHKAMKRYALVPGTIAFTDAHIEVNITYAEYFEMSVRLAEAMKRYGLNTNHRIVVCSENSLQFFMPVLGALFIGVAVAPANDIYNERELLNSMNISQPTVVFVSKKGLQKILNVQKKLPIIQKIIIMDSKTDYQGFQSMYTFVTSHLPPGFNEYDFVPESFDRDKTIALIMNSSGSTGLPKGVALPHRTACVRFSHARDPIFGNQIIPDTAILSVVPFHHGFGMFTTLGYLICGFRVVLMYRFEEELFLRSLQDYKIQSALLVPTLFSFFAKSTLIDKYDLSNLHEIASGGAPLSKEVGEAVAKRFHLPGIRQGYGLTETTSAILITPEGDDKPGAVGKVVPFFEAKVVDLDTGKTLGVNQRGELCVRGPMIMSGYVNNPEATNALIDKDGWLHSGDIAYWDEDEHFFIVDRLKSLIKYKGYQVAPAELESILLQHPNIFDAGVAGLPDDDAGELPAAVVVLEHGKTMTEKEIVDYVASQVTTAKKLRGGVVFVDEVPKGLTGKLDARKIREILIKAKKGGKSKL
Experiment: firefly luciferase enzyme inhibitors, primary screen, artefact control for luciferase-based inhibitor screens, biochemical, luminescence, ATPLite (AID 1006)
Details: 10 min, at 10 µM
The campaign covered roughly 200,000 compounds. About 3,000 (1.5%) were called active.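 Rule for the calls: active = inhibition above about 50% when tested at 10 µM (limit read from the data); inactive = the rest.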 The full list was thinned out, with actives kept by preference.
Answer with one of the outcomes given here: active, inactive

Problem: Field: outcome | Entry: CC(C)CC(=O)NC(=S)NCc1ccccc1
Solution: inactive

Problem: Field: outcome | Entry: Cn1c(N)cc(-c2ccc(F)cc2)c(C#N)c1=O
Solution: inactive

Problem: Field: outcome | Entry: O=C(CSc1nc(O)c(Cc2ccccc2)c(=O)[nH]1)Nc1nc2c(s1)CCCC2
Solution: inactive

Problem: Field: outcome | Entry: CC1CN(C(=S)SCC(=O)c2ccccc2)CC(C)O1 (stereo unspecified)
Solution: inactive

Problem: Field: outcome | Entry: COc1ccc(-c2noc(-c3ccc(C)cc3)n2)cc1
Solution: inactive

Problem: Field: outcome | Entry: CC(C)CC(=O)N/C(N)=N/c1nc2ccccc2s1
Solution: active
